Biological target: Hexose transporter 1 (Plasmodium falciparum)
Assay: ST_JUDE_LEISH: Cytotoxicity at 2uM final concentration against transgenic Leishmania Mexicana promastigotes LmPfHT that are glucose transport deficient and complemented with the Plasmodium falciparum hexose transporter. Activity is measured by DNA content using SYBR green in vitro
Type: functional
test.readout: inhibition
Quick note: number first, unit second.

Prompt: Please tell me: inhibition of O=C(/C=C/c1c(Cl)cccc1Cl)NC1CCC(CN2CCC(Cc3cc4ccccc4[nH]3)CC2)CC1 (centres undefined) , system Hexose transporter 1 (Plasmodium falciparum)?
Response: 10.2%

Prompt: Please tell me: inhibition of Cc1ccccc1C1CCN(C2CCC(NC(=O)/C=C/c3ccc(Cl)cc3)CC2)CC1 (centres undefined) , system Hexose transporter 1 (Plasmodium falciparum)?
Response: 2.6%

Prompt: Please tell me: inhibition of Cc1ccc(Nc2nc(C)cc(NCc3ccc(-n4ccnc4)cc3)n2)cc1 , system Hexose transporter 1 (Plasmodium falciparum)?
Response: 10.8%

Prompt: Please tell me: inhibition of N#Cc1cccc(NC(=O)C2=C(CCc3ccc4c(c3)OCO4)NC(=O)NC2c2cccc(C#N)c2)c1 (centres undefined) , system Hexose transporter 1 (Plasmodium falciparum)?
Response: 0.52%

Prompt: Please tell me: inhibition of CN1CCCC(CN2CCN(Cc3cccc(-c4cccc(-c5nc6ccccc6[nH]5)c4)c3)CC2)C1 (centres undefined) , system Hexose transporter 1 (Plasmodium falciparum)?
Response: 2.2%

Prompt: Please tell me: inhibition of CCOc1cc(C(=O)NC2CCN(Cc3ccccc3)CC2)ccc1-c1nc2cc(Cl)c(Cl)cc2[nH]1 , system Hexose transporter 1 (Plasmodium falciparum)?
Response: 5.07%

Prompt: Please tell me: inhibition of Cc1cccc(C(=O)Nc2ccnc(N(C)CCCN(C)Cc3cccc(C#N)c3)c2)c1 , system Hexose transporter 1 (Plasmodium falciparum)?
Response: 4.86%

Prompt: Please tell me: inhibition of C=CCn1c(SCC(=O)Nc2cc(C)ccc2OC)nc2sc(C)cc2c1=O , system Hexose transporter 1 (Plasmodium falciparum)?
Response: 3.15%

Prompt: Please tell me: inhibition of N=C(N)Nc1ccc(CCc2ccc(NC(=N)N)cc2)cc1 , system Hexose transporter 1 (Plasmodium falciparum)?
Response: 4.16%
